Reported Shocks/animal, Treated animals by item:
tested on: drinking frequency of thirsty animals; assay: Anxiolytic activity (drinking frequency of thirsty naive rats, electro-shock); assay type: in vivo; settings: 10 mgm/kg orally, one hour before testing, 3-minute session
Counter-ions that a name gives are not always drawn.
Answer with a number only, understood to be in Shocks/animal.

For reference, reported Shocks/animal, Treated animals for Nc1c(C(=O)NCc2cccnc2)cc(Cl)cc1C(F)(F)F stands at 9.6

What the record says about Cl.Nc1ccc(C(=O)NC2CCCCC2)c(Cl)c1 : Shocks/animal, Treated animals is 5.3

Note to self: Shocks/animal, Treated animals recorded for CCN1CCCC1CNC(=O)c1cc(Cl)cc(C(F)(F)F)c1N (centres unmarked) [I, hydrochloride] was 7.5

Recorded Shocks/animal, Treated animals (compound CN(C(=O)c1ccc(N)cc1Cl)C1CCCCC1 ): 7.8

// CCN1CCCC1CNC(=O)c1cc(Cl)cc(Cl)c1N (centres unmarked) [D, hydrochloride] : Shocks/animal, Treated animals value = 6.8

Given item CCN1CCCC1CNC(=O)c1cc(C)cc(Cl)c1N (centres unmarked) , the value recorded as its Shocks/animal, Treated animals is 7.1

Notebook: CCN1CCCC1CNC(=O)c1cc([N+](=O)[O-])cc(Cl)c1N (centres unmarked) , Shocks/animal, Treated animals read as 4.9

The compound listed as CCN1CCCC1CNC(=O)c1cc(Cl)c(N)c(C(F)(F)F)c1 (centres unmarked) [J, hydrochloride] has a reported Shocks/animal, Treated animals of 7.2

Documented Shocks/animal, Treated animals of CCN1CCCC1CNC(=O)c1cc(Br)cc(Cl)c1N (centres unmarked) [E, hydrochloride] : 7.5

In plain terms, CCN1CCCC1CNC(=O)c1cc(F)c(N)c(Cl)c1 (centres unmarked) has a documented Shocks/animal, Treated animals of 6.7

The recorded Shocks/animal, Treated animals for Cl.Nc1ccc(C(=O)NCc2ccccc2)c(Cl)c1 is 7.1
